The origin of these recorded values is patent US20200123233A1.

Give CVS-11 neutralizing antibody titer (RFFIT), nM IC50 for every item shown.
target: Rabies virus glycoprotein G, Challenge Virus Standard (CVS)-11 strain (Rabies virus, strain CVS-11 (genotype 1 Lyssavirus)) (UniProt O92284); experiment: cell-based or functional assay
Sequence (O92284 20-524 limits assumed): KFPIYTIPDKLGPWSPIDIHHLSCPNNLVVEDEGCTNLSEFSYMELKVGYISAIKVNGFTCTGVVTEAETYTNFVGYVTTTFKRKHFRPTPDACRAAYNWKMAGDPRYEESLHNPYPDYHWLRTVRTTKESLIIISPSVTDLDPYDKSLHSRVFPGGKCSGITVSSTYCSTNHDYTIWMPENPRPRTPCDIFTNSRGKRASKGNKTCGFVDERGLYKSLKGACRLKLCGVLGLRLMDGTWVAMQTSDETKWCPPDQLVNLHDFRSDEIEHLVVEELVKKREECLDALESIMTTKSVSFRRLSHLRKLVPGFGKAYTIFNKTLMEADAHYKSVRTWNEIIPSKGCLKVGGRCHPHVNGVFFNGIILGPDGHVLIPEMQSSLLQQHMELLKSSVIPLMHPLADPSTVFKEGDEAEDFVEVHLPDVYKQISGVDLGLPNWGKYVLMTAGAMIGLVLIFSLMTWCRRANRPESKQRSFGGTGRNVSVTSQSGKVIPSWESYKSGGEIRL
Numbers only, in nM.

Reference set (3 entries):
* LG214F8 (VHH) VHH: EVQLVESGGDLVQAGGSLRLSCVASGSTYSINAMGWYRQAPGKLRELVAAFRTGGSTDYADSVKGRFTISRDTAKNTVYLQMNSLKPEDTAVYYCNAEVIYYPYDYWGQGTQVTVSS | 325
* LG212C12 (VHH) VHH: EVQLVESGGGLVQPGGSLRLSCAASGFTFGSSDMSWVRQAPGKGPEWVSGINSGGGRTLYADSVKGRFTISRDNAKNTLYLQMNSLKSEDTAVYYCATDLYGSSWYTDYWSQGTQVTVSS | 7.55
* LG214C10 (VHH) VHH: EVQLVESGGGLVQPGGSLRLSCAASGFIFGSYDMSWVRQAPGKGPEWVSGINSGGGSTGYADSVKGRFTISRDNAKNTLYLQMNSLKPEDTAVYYCSTNLYPTTDDVWGQGTQVTVSS | 220

Exercise: Give the measured CVS-11 neutralizing antibody titer (RFFIT), nM IC50 of LG214A8 (VHH) VHH: EVQLVKSGGGSVQAGGSLRLSCAASGGTFNPYVMAWFRQAPGNEREFVARIRWSGGDAYYDDSVKGRFAITRDAAKNTVHLQMNSLKPEDTAVYYCAAATYGYGSYTYGGSYDLWGQGTQVTVSS .
Key: 293
